These entries and their values trace back to patent US20190175609A1.

# testSystem: Programmed Death 1 (PD-1) (UniProt Q15116 25-167, limits assumed)
# Sequence (Q15116 25-167 limits assumed): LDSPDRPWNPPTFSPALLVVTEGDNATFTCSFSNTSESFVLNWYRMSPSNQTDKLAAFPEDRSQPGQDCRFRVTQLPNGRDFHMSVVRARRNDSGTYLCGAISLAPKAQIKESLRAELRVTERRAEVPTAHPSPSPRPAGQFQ
# methodDescription: rank among the 16 humanized clones by FACS data (order agrees with the 200 ng/ml bars of FIGURE 4, 1 = highest)
Criterion: Ranking FACS data strictly under 6. Met: Yes. Not met: No.

# TODO verify Ranking FACS data < 6 strictly for this binder: BAP049-hum12 (antibody, human IgG4 S228P, kappa, V domains shown, also called Clone No. 12) VH: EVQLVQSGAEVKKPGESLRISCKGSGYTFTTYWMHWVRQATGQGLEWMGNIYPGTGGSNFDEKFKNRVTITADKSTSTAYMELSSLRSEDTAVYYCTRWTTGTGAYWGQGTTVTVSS VL: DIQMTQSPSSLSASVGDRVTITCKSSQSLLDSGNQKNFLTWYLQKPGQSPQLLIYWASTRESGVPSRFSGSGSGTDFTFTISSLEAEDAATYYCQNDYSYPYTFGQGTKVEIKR
Yes

Bench note: check whether BAP049-hum05 (antibody, human IgG4 S228P, kappa, V domains shown, Humanized mAb) VH: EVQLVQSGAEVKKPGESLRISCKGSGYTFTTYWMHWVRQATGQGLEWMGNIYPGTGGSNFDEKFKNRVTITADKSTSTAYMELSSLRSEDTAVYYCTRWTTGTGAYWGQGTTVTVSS VL: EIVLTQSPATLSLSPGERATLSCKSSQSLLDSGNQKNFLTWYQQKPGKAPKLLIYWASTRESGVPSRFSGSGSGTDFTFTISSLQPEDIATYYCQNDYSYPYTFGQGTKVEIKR shows Ranking FACS data below 6
Yes

Identify whether the binder BAP049-hum03 (antibody, human IgG4 S228P, kappa, V domains shown, also called Clone No. 3) VH: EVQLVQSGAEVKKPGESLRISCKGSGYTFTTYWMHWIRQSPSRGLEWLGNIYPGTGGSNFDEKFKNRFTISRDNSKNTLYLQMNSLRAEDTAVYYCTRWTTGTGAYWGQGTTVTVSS VL: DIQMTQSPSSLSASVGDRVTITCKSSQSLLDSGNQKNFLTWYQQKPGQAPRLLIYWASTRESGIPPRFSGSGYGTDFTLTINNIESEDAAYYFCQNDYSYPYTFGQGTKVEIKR records Ranking FACS data below 6.
No

# check: Ranking FACS data < 6 for BAP049-hum01 (antibody, human IgG4 S228P, kappa, V domains shown, Humanized mAb) VH: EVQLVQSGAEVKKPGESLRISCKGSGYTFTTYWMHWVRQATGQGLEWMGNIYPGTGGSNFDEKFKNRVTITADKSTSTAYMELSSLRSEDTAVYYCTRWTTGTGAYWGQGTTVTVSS VL: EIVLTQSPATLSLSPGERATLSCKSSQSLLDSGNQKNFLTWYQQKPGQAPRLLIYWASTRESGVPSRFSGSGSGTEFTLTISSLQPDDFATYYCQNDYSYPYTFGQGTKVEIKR
Yes

Consider BAP049-hum04 (antibody, human IgG4 S228P, kappa, V domains shown, also called Clone No. 4) VH: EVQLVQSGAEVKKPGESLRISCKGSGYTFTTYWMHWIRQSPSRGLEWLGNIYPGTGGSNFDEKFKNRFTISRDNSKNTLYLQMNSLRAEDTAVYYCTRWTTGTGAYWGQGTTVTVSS VL: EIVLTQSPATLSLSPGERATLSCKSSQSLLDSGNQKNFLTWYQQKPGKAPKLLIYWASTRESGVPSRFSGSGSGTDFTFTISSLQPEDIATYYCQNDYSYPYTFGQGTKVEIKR . Does its Ranking FACS data lie strictly below 6?
No

Hi there! Is Ranking FACS data for BAP049-hum16 (antibody, human IgG4 S228P, kappa, V domains shown, also called Clone No. 16) VH: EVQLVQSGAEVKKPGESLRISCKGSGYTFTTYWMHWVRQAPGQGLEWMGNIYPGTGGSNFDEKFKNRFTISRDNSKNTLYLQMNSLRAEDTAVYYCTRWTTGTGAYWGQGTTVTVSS VL: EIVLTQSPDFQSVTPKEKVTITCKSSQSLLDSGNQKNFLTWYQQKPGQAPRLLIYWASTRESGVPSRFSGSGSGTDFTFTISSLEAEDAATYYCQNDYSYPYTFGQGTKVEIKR below 6, do you know?
No
